B1: SPACA3 (parent)
chain: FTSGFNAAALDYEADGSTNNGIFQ

# Variants of: B1
# assayMethodText: protein stability index of a GFP-peptide fusion (GPS, HEK-293T) (PSI 1-6); higher = more stable;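 also: lentivirally expressed fusions sorted by FACS into six bins by GFP to DsRed ratio, PSI derived from sequencing read proportions per bin multiplied by bin number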
# testParameters: c terminus: a fixed tail appended
readoutLabel: protein stability index

>>> recordedvalue("Y12K")
2.04
>>> recordedvalue("F1Y")
2.24
>>> recordedvalue("D11F")
3.1
>>> recordedvalue("F1L")
4.01
>>> recordedvalue("F1V")
4.46
>>> recordedvalue("T18V")
1.5
>>> recordedvalue("G21D")
1.9
>>> recordedvalue("F5A")
4.07
>>> recordedvalue("A9W")
2.5
>>> recordedvalue("Q24Y")
1.74

// data source = the supplement of paper PMC10567573
